STUDY SYSTEM: T1, recombinant human FGF23 (R179Q) (human, UniProt Q9GZV9 25-251)
T1 construct: also called rhFGF23(R179Q); hFGF23(R179Q)
T1 sequence (looked up): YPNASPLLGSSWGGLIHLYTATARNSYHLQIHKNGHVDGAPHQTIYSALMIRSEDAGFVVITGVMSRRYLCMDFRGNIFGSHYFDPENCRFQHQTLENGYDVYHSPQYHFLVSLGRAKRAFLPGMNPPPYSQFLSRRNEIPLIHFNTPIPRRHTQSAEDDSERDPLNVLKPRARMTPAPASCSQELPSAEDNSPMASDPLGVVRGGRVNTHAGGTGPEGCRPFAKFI
TEST PROTOCOL: SPR, antibody captured on hIgG chip, rhFGF23(R179Q) analyte
Record form. Attribute: kon. Fill in for each entry.
Write the value in M⁻¹ s⁻¹ as a bare number.

Enquiry: Fill blank: measured kon of the binder UGX205 (antibody, human IgG1, kappa, V domains shown, also called HC:S59E, LC:Y94D; S59E/Y94D) VH: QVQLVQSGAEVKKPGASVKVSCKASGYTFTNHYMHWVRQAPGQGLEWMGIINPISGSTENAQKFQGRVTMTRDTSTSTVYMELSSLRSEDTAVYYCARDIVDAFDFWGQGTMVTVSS VL: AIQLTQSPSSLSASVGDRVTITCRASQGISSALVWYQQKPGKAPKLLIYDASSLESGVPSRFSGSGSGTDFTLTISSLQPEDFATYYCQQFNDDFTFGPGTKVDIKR is ____.
Return: 1.53e+07

Enquiry: Fill blank: measured kon of the binder UGX182 (antibody, human IgG1, kappa, V domains shown, also called HC:S59D, HC:V101I; S59D/V101I) VH: QVQLVQSGAEVKKPGASVKVSCKASGYTFTNHYMHWVRQAPGQGLEWMGIINPISGSTDNAQKFQGRVTMTRDTSTSTVYMELSSLRSEDTAVYYCARDIIDAFDFWGQGTMVTVSS VL: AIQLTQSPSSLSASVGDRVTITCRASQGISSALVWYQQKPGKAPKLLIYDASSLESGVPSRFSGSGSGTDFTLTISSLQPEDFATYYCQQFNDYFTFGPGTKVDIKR is ____.
Return: 1.49e+07

Enquiry: Fill blank: measured kon of the binder UGX144 (antibody, human IgG1, kappa, V domains shown, also called LC:Y94D; Y94D) VH: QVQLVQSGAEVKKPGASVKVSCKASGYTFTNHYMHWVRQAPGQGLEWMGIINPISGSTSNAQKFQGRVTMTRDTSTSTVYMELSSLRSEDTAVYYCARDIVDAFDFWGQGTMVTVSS VL: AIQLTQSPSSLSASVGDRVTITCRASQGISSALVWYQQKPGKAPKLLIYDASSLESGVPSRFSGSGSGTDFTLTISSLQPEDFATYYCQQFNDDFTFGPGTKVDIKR is ____.
Return: 1.09e+07
